Documented MIC across a set of compounds
# Test system: Enterococcus faecium
# assay_details: Antibacterial activity against clinical isolates of penicillin-resistant Enterococcus faecium GMCH/R-Pen003 after overnight incubation by microdilution broth assay
# Assay type: functional
Square brackets hold non-standard residues; d marks the D form. Peptide text beside a SMILES is read from it. * marks the point of attachment. Stearoyl = CCCCCCCCCCCCCCCCCC(=O)*; Myristoyl = CCCCCCCCCCCCCC(=O)*; Orn = NCCC[CH](N)C(=O)O
Include the unit right after the number.

compound	target	MIC
CCCCCCCCCCCCCC(=O)NC(CCCN)C(=O)NC(CCCN)C(=O)NC(CCCN)C(=O)NC(CCCN)C(N)=O (stereo not given) (Myristoyl-[Orn][Orn][Orn][Orn]-NH2; configuration not given here)	Enterococcus faecium	5.5 µg/mL
CCCCCCCCCCCCCCCC(=O)NC(CCCN)C(=O)NC(CCCN)C(=O)NC(CCCN)C(N)=O (stereo not given)	Enterococcus faecium	5 µg/mL

Requested read-out: MIC. Entry: CCCCCCCCCCCCCCCCCC(=O)NC(CCCN)C(=O)NC(CCCN)C(=O)NC(CCCN)C(N)=O (stereo not given)
7.5 µg/mL

Now consider CCCCCCCCCC(=O)N[C@@H](Cc1c[nH]c2ccccc12)C(=O)N[C@H](CC(N)=O)C(=O)N[C@@H](CC(=O)O)C(=O)N[C@@H]1C(=O)NCC(=O)N[C@@H](CCCN)C(=O)N[C@@H](CC(=O)O)C(=O)N[C@H](C)C(=O)N[C@@H](CC(=O)O)C(=O)NCC(=O)N[C@H](CO)C(=O)N[C@@H]([C@H](C)CC(=O)O)C(=O)N[C@@H](CC(=O)c2ccccc2N)C(=O)O[C@@H]1C .
2.5 µg/mL

Now consider CCCCCCCCCCCCCCCCCC(=O)NC(CCCN)C(=O)NC(CCCN)C(=O)NC(CCCN)C(=O)NC(CCCN)C(=O)NC(CCCN)C(N)=O (stereo not given) (Stearoyl-[Orn][Orn][Orn][Orn][Orn]-NH2; configuration not given here) .
12.5 µg/mL
